experimental_target: P2Y purinoceptor 6 (Homo sapiens)
Sequence (Q15077 whole entry): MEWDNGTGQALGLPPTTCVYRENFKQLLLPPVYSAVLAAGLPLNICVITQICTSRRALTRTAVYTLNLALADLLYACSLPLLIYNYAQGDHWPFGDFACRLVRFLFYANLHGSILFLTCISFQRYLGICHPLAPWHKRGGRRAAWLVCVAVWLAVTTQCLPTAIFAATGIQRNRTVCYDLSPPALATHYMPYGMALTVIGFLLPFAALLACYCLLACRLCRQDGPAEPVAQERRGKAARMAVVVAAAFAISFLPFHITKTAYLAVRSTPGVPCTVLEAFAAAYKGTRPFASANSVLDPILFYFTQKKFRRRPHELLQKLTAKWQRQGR
protocol_description: Agonist activity at human P2Y6 receptor expressed in human 1321N1 cells assessed as stimulation of [3H]inositol phosphate accumulation by liquid scintillation counting
Type: functional, cell-based
# log10(EC50) listing for each entry below
Hi team, quick reminder: these entries are log10 of EC50 (nM).

Some entries whose results are on file:
1. O=c1[nH]/c(=N\OCCCc2ccc([N+](=O)[O-])cc2)ccn1[C@@H]1O[C@H](COP(=O)(O)OP(=O)(O)OP(=O)(O)O)[C@@H](O)[C@H]1O	3.12
2. N=c1ccc2c(-c3ccc(C(=O)NCCCCCCn4cc(CCNC(=O)COc5ccc(CCCO/N=c6/ccn([C@@H]7O[C@H](COP(=O)(O)OP(=O)(O)OP(=O)(O)O)[C@@H](O)[C@H]7O)c(=O)[nH]6)cc5)nn4)cc3C(=O)O)c3ccc(N)c(S(=O)(=O)O)c3oc-2c1S(=O)(=O)O	2.52
3. O=c1[nH]/c(=N\OCCCc2cccc(F)c2)ccn1[C@@H]1O[C@H](COP(=O)(O)OP(=O)(O)OP(=O)(O)O)[C@@H](O)[C@H]1O	2.73

Note to self: log10(EC50) recorded for COc1ccc(CCCO/N=c2/ccn([C@@H]3O[C@H](COP(=O)(O)OP(=O)(O)OP(=O)(O)O)[C@@H](O)[C@H]3O)c(=O)[nH]2)cc1 was 2.44

###

experimental_target: P2Y purinoceptor 2 (Homo sapiens)
protocol_description: Agonist activity at human P2Y2 receptor expressed in human 1321N1 cells assessed as stimulation of [3H]inositol phosphate accumulation by liquid scintillation counting
Assay type: functional, cell-based
# EC50 listing for each entry below
Reply numerically in µM, unit not repeated.

Some entries whose results are on file:
1) O=c1[nH]/c(=N\OCCCc2ccc3ccccc3c2)ccn1[C@@H]1O[C@H](COP(=O)(O)OP(=O)(O)OP(=O)(O)O)[C@@H](O)[C@H]1O	0.139
2) C#CCCCO/N=c1/ccn([C@@H]2O[C@H](COP(=O)(O)OP(=O)(O)OP(=O)(O)O)[C@@H](O)[C@H]2O)c(=O)[nH]1	0.168

Now turn to the next compound.
Note to self: EC50 recorded for O=c1[nH]/c(=N\OCCCc2ccncc2)ccn1[C@@H]1O[C@H](COP(=O)(O)OP(=O)(O)OP(=O)(O)O)[C@@H](O)[C@H]1O was 0.285

###

experimental_target: P2Y purinoceptor 4 (Homo sapiens)
Sequence (P51582 whole entry): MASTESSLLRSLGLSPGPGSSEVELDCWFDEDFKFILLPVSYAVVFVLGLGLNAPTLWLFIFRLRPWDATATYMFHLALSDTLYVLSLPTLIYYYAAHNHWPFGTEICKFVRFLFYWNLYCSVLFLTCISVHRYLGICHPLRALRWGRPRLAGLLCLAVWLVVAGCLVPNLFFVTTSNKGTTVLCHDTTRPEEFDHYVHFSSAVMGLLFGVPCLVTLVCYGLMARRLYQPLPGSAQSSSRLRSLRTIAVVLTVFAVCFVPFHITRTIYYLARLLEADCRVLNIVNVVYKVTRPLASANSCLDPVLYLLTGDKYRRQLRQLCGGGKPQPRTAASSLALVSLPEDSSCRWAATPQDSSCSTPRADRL
protocol_description: Agonist activity at human P2Y4 receptor expressed in human 1321N1 cells assessed as stimulation of [3H]inositol phosphate accumulation by liquid scintillation counting
Assay type: functional, cell-based
pEC50: −log10 of the molar value.
pEC50 vs 7: at or above is condition met, below is condition not met.

1) C#CCCNC(=O)COc1ccc(CCCO/N=c2/ccn([C@@H]3O[C@H](COP(=O)(O)OP(=O)(O)OP(=O)(O)O)[C@@H](O)[C@H]3O)c(=O)[nH]2)cc1	condition met
2) O=c1[nH]/c(=N\OCCCc2ccsc2)ccn1[C@@H]1O[C@H](COP(=O)(O)OP(=O)(O)OP(=O)(O)O)[C@@H](O)[C@H]1O	condition met
3) O=C(O)CCCO/N=c1/ccn([C@@H]2O[C@H](COP(=O)(O)OP(=O)(O)OP(=O)(O)O)[C@@H](O)[C@H]2O)c(=O)[nH]1	condition not met

Does O=c1[nH]/c(=N\OCCCCc2ccccc2)ccn1[C@@H]1O[C@H](COP(=O)(O)OP(=O)(O)OP(=O)(O)O)[C@@H](O)[C@H]1O have a reported pEC50 of at least 7?
condition met

Does O=c1[nH]/c(=N\OCCCc2ccncc2)ccn1[C@@H]1O[C@H](COP(=O)(O)OP(=O)(O)OP(=O)(O)O)[C@@H](O)[C@H]1O have a reported pEC50 of at least 7?
condition not met

Does C#CCCCO/N=c1/ccn([C@@H]2O[C@H](COP(=O)(O)OP(=O)(O)OP(=O)(O)O)[C@@H](O)[C@H]2O)c(=O)[nH]1 have a reported pEC50 of at least 7?
condition not met

###

# EC50 listing for each entry below
experimental_target: UniProt Q15077
protocol_description: Agonist activity at human P2Y6 receptor expressed in human 1321N1 cells assessed as stimulation of [3H]inositol phosphate accumulation by liquid scintillation counting
Format: functional, cell-based

1. N#CC(CCO/N=c1/ccn([C@@H]2O[C@H](COP(=O)(O)OP(=O)(O)OP(=O)(O)O)[C@@H](O)[C@H]2O)c(=O)[nH]1)(c1ccccc1)c1ccccc1	0.177 µM
2. O=c1[nH]/c(=N\OCCCc2ccncc2)ccn1[C@@H]1O[C@H](COP(=O)(O)OP(=O)(O)OP(=O)(O)O)[C@@H](O)[C@H]1O	4.28 µM
3. O=c1[nH]/c(=N\OCCOc2ccccc2)ccn1[C@@H]1O[C@H](COP(=O)(O)OP(=O)(O)OP(=O)(O)O)[C@@H](O)[C@H]1O	1.78 µM
4. O=C(O)CCCO/N=c1/ccn([C@@H]2O[C@H](COP(=O)(O)OP(=O)(O)OP(=O)(O)O)[C@@H](O)[C@H]2O)c(=O)[nH]1	0.697 µM
5. O=c1[nH]/c(=N\OCCCc2cccnc2)ccn1[C@@H]1O[C@H](COP(=O)(O)OP(=O)(O)OP(=O)(O)O)[C@@H](O)[C@H]1O	2.95 µM
6. O=c1[nH]/c(=N\OCCCc2ccc(F)cc2)ccn1[C@@H]1O[C@H](COP(=O)(O)OP(=O)(O)OP(=O)(O)O)[C@@H](O)[C@H]1O	1.21 µM

Note to self: EC50 recorded for O=c1[nH]/c(=N\OCCCc2cccc(I)c2)ccn1[C@@H]1O[C@H](COP(=O)(O)OP(=O)(O)OP(=O)(O)O)[C@@H](O)[C@H]1O was 0.299 µM

Note to self: EC50 recorded for C#CCCNC(=O)COc1ccc(CCCO/N=c2/ccn([C@@H]3O[C@H](COP(=O)(O)OP(=O)(O)OP(=O)(O)O)[C@@H](O)[C@H]3O)c(=O)[nH]2)cc1 was 0.183 µM

###

experimental_target: P2Y purinoceptor 2 (Homo sapiens)
protocol_description: Agonist activity at human P2Y2 receptor expressed in human 1321N1 cells assessed as stimulation of [3H]inositol phosphate accumulation by liquid scintillation counting
Format: functional, cell-based
assay_metric: pEC50
Units for pEC50: none; it is -log10 of a concentration expressed in mol/L.

Some entries whose results are on file:
1) O=c1[nH]/c(=N\OCCCc2cccc(F)c2)ccn1[C@@H]1O[C@H](COP(=O)(O)OP(=O)(O)OP(=O)(O)O)[C@@H](O)[C@H]1O	6.72
2) C#CCCNC(=O)COc1ccc(CCCO/N=c2/ccn([C@@H]3O[C@H](COP(=O)(O)OP(=O)(O)OP(=O)(O)O)[C@@H](O)[C@H]3O)c(=O)[nH]2)cc1	6.96

Tested system P2Y purinoceptor 2 (Homo sapiens); pEC50 recorded for O=c1[nH]/c(=N\OCCCc2ccc([N+](=O)[O-])cc2)ccn1[C@@H]1O[C@H](COP(=O)(O)OP(=O)(O)OP(=O)(O)O)[C@@H](O)[C@H]1O was 6.34

###

experimental_target: P2Y purinoceptor 2 (Homo sapiens, UniProt P41231)
Sequence (P41231 whole entry): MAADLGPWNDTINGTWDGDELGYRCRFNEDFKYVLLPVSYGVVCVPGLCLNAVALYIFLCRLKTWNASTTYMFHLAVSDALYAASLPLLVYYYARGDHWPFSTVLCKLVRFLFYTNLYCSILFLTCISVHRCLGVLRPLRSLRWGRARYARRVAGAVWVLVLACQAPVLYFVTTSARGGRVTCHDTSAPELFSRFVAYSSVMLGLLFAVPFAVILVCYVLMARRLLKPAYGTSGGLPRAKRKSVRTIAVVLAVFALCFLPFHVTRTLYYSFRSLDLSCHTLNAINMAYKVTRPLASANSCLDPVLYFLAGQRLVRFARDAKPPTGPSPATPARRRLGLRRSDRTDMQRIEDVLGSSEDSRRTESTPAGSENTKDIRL
protocol_description: Agonist activity at human P2Y2 receptor expressed in human 1321N1 cells assessed as stimulation of [3H]inositol phosphate accumulation by liquid scintillation counting
Format: functional, cell-based
# pEC50 listing for each entry below
Units for pEC50: none; it is -log10 of a concentration expressed in mol/L.

Some entries whose results are on file:
1) O=c1[nH]/c(=N\OCCCc2cccc([N+](=O)[O-])c2)ccn1[C@@H]1O[C@H](COP(=O)(O)OP(=O)(O)OP(=O)(O)O)[C@@H](O)[C@H]1O	6.34
2) COc1ccc(CCCO/N=c2/ccn([C@@H]3O[C@H](COP(=O)(O)OP(=O)(O)OP(=O)(O)O)[C@@H](O)[C@H]3O)c(=O)[nH]2)cc1	7.33
3) O=C(CCCCCNC(=O)COc1ccc(/C=C/c2ccc3n2[B-](F)(F)[N+]2=C(c4cccs4)C=CC2=C3)cc1)NCCCn1cc(CCNC(=O)COc2ccc(CCCO/N=c3/ccn([C@@H]4O[C@H](COP(=O)(O)OP(=O)(O)OP(=O)(O)O)[C@@H](O)[C@H]4O)c(=O)[nH]3)cc2)nn1	7.18
4) N#CC(CCO/N=c1/ccn([C@@H]2O[C@H](COP(=O)(O)OP(=O)(O)OP(=O)(O)O)[C@@H](O)[C@H]2O)c(=O)[nH]1)(c1ccccc1)c1ccccc1	6.03

Note to self: pEC50 recorded for O=c1[nH]/c(=N\OCCCc2ccc(F)cc2)ccn1[C@@H]1O[C@H](COP(=O)(O)OP(=O)(O)OP(=O)(O)O)[C@@H](O)[C@H]1O was 6.26

Note to self: pEC50 recorded for O=c1[nH]/c(=N\OCCCc2ccc(I)cc2)ccn1[C@@H]1O[C@H](COP(=O)(O)OP(=O)(O)OP(=O)(O)O)[C@@H](O)[C@H]1O was 6.73

Note to self: pEC50 recorded for O=c1[nH]/c(=N\OCCCCc2ccccc2)ccn1[C@@H]1O[C@H](COP(=O)(O)OP(=O)(O)OP(=O)(O)O)[C@@H](O)[C@H]1O was 6.67

Note to self: pEC50 recorded for O=c1[nH]/c(=N\OCCCc2ccc(Br)cc2)ccn1[C@@H]1O[C@H](COP(=O)(O)OP(=O)(O)OP(=O)(O)O)[C@@H](O)[C@H]1O was 6.46

Note to self: pEC50 recorded for O=c1[nH]/c(=N\OCCCc2ccsc2)ccn1[C@@H]1O[C@H](COP(=O)(O)OP(=O)(O)OP(=O)(O)O)[C@@H](O)[C@H]1O was 6.99

Note to self: pEC50 recorded for O=c1[nH]/c(=N\OCCOc2ccccc2)ccn1[C@@H]1O[C@H](COP(=O)(O)OP(=O)(O)OP(=O)(O)O)[C@@H](O)[C@H]1O was 5.47

Note to self: pEC50 recorded for N=c1ccc2c(-c3ccc(C(=O)NCCCCCCn4cc(CCNC(=O)COc5ccc(CCCO/N=c6/ccn([C@@H]7O[C@H](COP(=O)(O)OP(=O)(O)OP(=O)(O)O)[C@@H](O)[C@H]7O)c(=O)[nH]6)cc5)nn4)cc3C(=O)O)c3ccc(N)c(S(=O)(=O)O)c3oc-2c1S(=O)(=O)O was 6.24
